The origin of these recorded values is the supplement of paper PMC10567573.

B1: TOR1AIP2 (parent)
chain: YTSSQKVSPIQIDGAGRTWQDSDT

Variants of: B1
protocol: protein stability index of a GFP-peptide fusion (GPS, HEK-293T) (PSI 1-6); higher = more stable;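 also: lentivirally expressed fusions sorted by FACS into six bins by GFP to DsRed ratio, PSI derived from sequencing read proportions per bin multiplied by bin number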
conditionDetails: c terminus: a fixed tail appended
# protein stability index annotations

{"variant": "G16T", "protein stability index": 2.7}
{"variant": "T2C", "protein stability index": 2.46}
{"variant": "G16H", "protein stability index": 3.41}
{"variant": "A15W", "protein stability index": 1.67}
{"variant": "S4F", "protein stability index": 2.58}
{"variant": "S8L", "protein stability index": 2.82}
{"variant": "Q5V", "protein stability index": 3.31}
{"variant": "S3N", "protein stability index": 4.21}
{"variant": "D21C", "protein stability index": 2.85}
{"variant": "V7Q", "protein stability index": 4.19}
{"variant": "W19R", "protein stability index": 4.13}
{"variant": "D23I", "protein stability index": 1.44}
{"variant": "S3D", "protein stability index": 4.32}
{"variant": "S8R", "protein stability index": 2.67}
{"variant": "A15K", "protein stability index": 2.73}
{"variant": "D21M", "protein stability index": 2.36}
{"variant": "R17W", "protein stability index": 2.32}
{"variant": "R17C", "protein stability index": 3.66}
{"variant": "S4V", "protein stability index": 3.27}
{"variant": "Q11T", "protein stability index": 3.56}
{"variant": "D13F", "protein stability index": 1.67}
{"variant": "R17D", "protein stability index": 4.16}
{"variant": "S4Y", "protein stability index": 2.67}
{"variant": "Q20W", "protein stability index": 2.01}
{"variant": "S8C", "protein stability index": 3.12}
{"variant": "K6D", "protein stability index": 4.86}
{"variant": "T24H", "protein stability index": 3.51}
{"variant": "Q5Y", "protein stability index": 2.34}
{"variant": "S8Q", "protein stability index": 3.17}
{"variant": "S3F", "protein stability index": 2.95}
{"variant": "Q11E", "protein stability index": 3.81}
{"variant": "I12A", "protein stability index": 3.68}
{"variant": "T2S", "protein stability index": 4.31}
{"variant": "I12S", "protein stability index": 3.08}
{"variant": "T2L", "protein stability index": 3.94}
{"variant": "Q5S", "protein stability index": 3.87}
{"variant": "Q5L", "protein stability index": 3.58}
{"variant": "T18R", "protein stability index": 3.43}
{"variant": "V7N", "protein stability index": 3.97}
{"variant": "T2R", "protein stability index": 4.72}
{"variant": "D13S", "protein stability index": 2.86}
{"variant": "G16F", "protein stability index": 2.3}
{"variant": "S3Q", "protein stability index": 3.82}
{"variant": "G14F", "protein stability index": 2.83}
{"variant": "R17Y", "protein stability index": 3.02}
{"variant": "D23Y", "protein stability index": 2.81}
{"variant": "S22V", "protein stability index": 3.17}
{"variant": "T18L", "protein stability index": 3}
{"variant": "T18I", "protein stability index": 2.63}
{"variant": "T18W", "protein stability index": 2.3}
{"variant": "R17F", "protein stability index": 2.33}
{"variant": "T24Q", "protein stability index": 2.63}
{"variant": "D23Q", "protein stability index": 3.41}
{"variant": "P9H", "protein stability index": 3.22}
{"variant": "T18S", "protein stability index": 2.87}
{"variant": "Q5G", "protein stability index": 3.38}
{"variant": "V7C", "protein stability index": 2.67}
{"variant": "Q11W", "protein stability index": 5.21}
{"variant": "A15R", "protein stability index": 2.56}
{"variant": "I10Y", "protein stability index": 1.57}
{"variant": "T2Y", "protein stability index": 3.54}
{"variant": "G14M", "protein stability index": 2.77}
{"variant": "W19A", "protein stability index": 3.93}
{"variant": "T2W", "protein stability index": 2.83}
{"variant": "S4R", "protein stability index": 3.23}
{"variant": "Y1M", "protein stability index": 5.05}
{"variant": "W19D", "protein stability index": 4.39}
{"variant": "Q20P", "protein stability index": 2.69}
{"variant": "D13Y", "protein stability index": 1.96}
{"variant": "D23H", "protein stability index": 2.16}
{"variant": "Q11P", "protein stability index": 3.93}
{"variant": "R17S", "protein stability index": 3.96}
{"variant": "R17M", "protein stability index": 2.18}
{"variant": "G14I", "protein stability index": 2.5}
{"variant": "P9A", "protein stability index": 3.34}
{"variant": "W19I", "protein stability index": 3.96}
{"variant": "D13T", "protein stability index": 2.87}
{"variant": "T24N", "protein stability index": 3.15}
{"variant": "Q5N", "protein stability index": 3.04}
{"variant": "Q11S", "protein stability index": 3.73}
{"variant": "R17E", "protein stability index": 4.4}
{"variant": "Y1T", "protein stability index": 4.68}
{"variant": "D23C", "protein stability index": 2.83}
{"variant": "D13P", "protein stability index": 2.87}
{"variant": "I12K", "protein stability index": 3.76}
{"variant": "A15P", "protein stability index": 2.99}
{"variant": "Y1S", "protein stability index": 4.77}
{"variant": "P9R", "protein stability index": 3.37}
{"variant": "P9S", "protein stability index": 4.38}
{"variant": "R17I", "protein stability index": 3.59}
{"variant": "Q11K", "protein stability index": 3.95}
